Every entry's value here was drawn from paper PMC6254286.

- System: Trypanosoma brucei rhodesiense STIB 900
- ASSAY_EXPLANATION: In vitro activity against T. brucei rhodesiense bloodstream forms (Alamar blue)
- Format: cell-based
- TEST_PARAMETERS: bloodstream forms STIB 900, 72 h; mean of two independent measurements; read-out: IC50 T. brucei rhodes. (Tbr)

COMPOUND: C=C1C(=O)OC2C1CCC1(C)C(O)CCC(=C)C21 (stereo not drawn) [Compound 31]
IC50 / nM: 17800
//
COMPOUND: C=C1C(=O)OC2C1CCC1(C)C(O)CCC(=C)C21 (stereo not drawn) [Compound 32]
IC50 / nM: 1110
//
COMPOUND: C=C1C(=O)OC2CC(C)C3C=CC(=O)C3(C)C(OC(C)=O)C12 (stereo not drawn)
IC50 / nM: 63

---

- Test system: K1 strain of P. falciparum
- ASSAY_EXPLANATION: Antiplasmodial [3H]-hypoxanthine incorporation assay
- Type: cell-based, Plasmodium falciparum
- TEST_PARAMETERS: Plasmodium falciparum, K1, read-out: IC50 P. falciparum (Pfc)
For each record, check the reported IC50: if it is below 700 nM write yes (1), else write no (0).

COMPOUND: CCN(CC)CCCC(C)Nc1ccnc2cc(Cl)ccc12 (stereo not shown) [chloroquine, reference compound]
SYSTEM: K1 strain of P. falciparum
ANSWER_LABEL: yes (1)

COMPOUND: C=C1C(=O)OC2CC(C)C3C=CC(=O)C3(C)C(OC(C)=O)C12 (stereo not shown) [Compound 2]
SYSTEM: K1 strain of P. falciparum
ANSWER_LABEL: yes (1)

COMPOUND: C=C1C(=O)OC2CC(C)C3C(O)CC(O)C3(C)C(OC(=O)C(C)=CC)C12 (stereo not shown) [Compound 13]
SYSTEM: K1 strain of P. falciparum
ANSWER_LABEL: no (0)

COMPOUND: CC1CC2OC(=O)C(C)C2C(O)C2(C)C(=O)C=CC12 (stereo not shown) [Compound 5]
SYSTEM: K1 strain of P. falciparum
ANSWER_LABEL: no (0)

COMPOUND: C=C1C(=O)OC2C=C(C)C(OC(C)=O)CC3OC3(C)CC(OC(=O)C(C)=CC)C12 (stereo not shown) [Compound 39]
SYSTEM: K1 strain of P. falciparum
ANSWER_LABEL: no (0)

COMPOUND: C=C1C(=O)OC2CC(C)C3C=CC(=O)C3(C)C(OC(=O)CC(C)C)C12 (stereo not shown) [Compound 4]
SYSTEM: K1 strain of P. falciparum
ANSWER_LABEL: no (0)

---

Property: IC50 at 72 h; scope: individual compounds
- ASSAY_EXPLANATION: Cytotoxicity against L6 cells (Alamar blue)
- TEST_PARAMETERS: rat, L6 cells (rat skeletal myoblasts)

COMPOUND: CC1=CCCC2(C)OC2C2OC(=O)C(C)C2CC1 (stereo not shown)
IC50 at 72 h [µM]: 133
//
COMPOUND: C=C1C(=O)OC2CC(C)C3(C=CC(C)=O)OC3CC12 (stereo not shown) [Compound 19, 8-epixanthatin-1,5-epoxide]
IC50 at 72 h [µM]: 22.1
//
COMPOUND: C=C1C(=O)OC2CC(C)C3(O)C=C(C(C)=O)C4(CC3CC12)C(=O)OC1CC(C)C(C=CC(C)=O)=CCC14 (stereo not shown)
IC50 at 72 h [µM]: 9.43
//
COMPOUND: CC(=O)OC1C2C(CC(C)C3C=CC(=O)C31C)OC(=O)C2C (stereo not shown)
IC50 at 72 h [µM]: 3.06
